system: DU-145; test: Inhibition of transcription factor complex formation in hypoxia-induced human DU145 cells assessed as reduction in nuclear proteins and Sp1 oligonucleotide probe complex at 100 to 300 uM by EMSA; format: functional, cell-based
Calls of active or inactive are those of the source. The rule behind the calls is not given here.
Pick from active, inactive when you respond.

Solved cases below.
C/C(=C\CC/C(C)=C/CCc1ccoc1)CC/C=C(\C)CC/C=C(\C)CCc1cn(CCOCCOCCOCCNC(=O)CSC[C@H](NC(=O)c2ccc(C(=O)c3ccccc3)cc2)C(=O)NCCOCCOCCOCCn2cc(CNC(=O)CCCC[C@@H]3SC[C@@H]4NC(=O)N[C@@H]43)nn2)nn1 | active
C/C(=C\CC/C(C)=C/CCc1ccoc1)CC/C=C(\C)CC/C=C(\C)CCc1cn(CCCCCNC(=O)CSC[C@H](NC(=O)c2ccc(C(=O)c3ccccc3)cc2)C(=O)NCCOCCOCCOCCn2cc(CNC(=O)CCCC[C@@H]3SC[C@@H]4NC(=O)N[C@@H]43)nn2)nn1 | inactive

QUERY: Called result for C/C(=C\CC/C(C)=C/CCc1ccoc1)CC/C=C(\C)CC/C=C(\C)CCc1cn(CCCNC(=O)CSC[C@H](NC(=O)c2ccc(C(=O)c3ccccc3)cc2)C(=O)NCCOCCOCCOCCn2cc(CNC(=O)CCCC[C@@H]3SC[C@@H]4NC(=O)N[C@@H]43)nn2)nn1
RESULT: inactive

QUERY: Called result for C/C(=C\CC/C(C)=C/CCc1ccoc1)CC/C=C(\C)CC/C=C(\C)CCc1cn(CCOCCOCCNC(=O)CSC[C@H](NC(=O)c2ccc(C(=O)c3ccccc3)cc2)C(=O)NCCOCCOCCOCCn2cc(CNC(=O)CCCC[C@@H]3SC[C@@H]4NC(=O)N[C@@H]43)nn2)nn1
RESULT: active

Recorded values, source ChEMBL document CHEMBL3232995.
